- SYSTEM_NAME: CB2 receptor (Mus musculus)
- Construct: membranes were prepared from frozen mouse spleen; from tissue; host or cells: mouse spleen
- Sequence (P47936 whole entry): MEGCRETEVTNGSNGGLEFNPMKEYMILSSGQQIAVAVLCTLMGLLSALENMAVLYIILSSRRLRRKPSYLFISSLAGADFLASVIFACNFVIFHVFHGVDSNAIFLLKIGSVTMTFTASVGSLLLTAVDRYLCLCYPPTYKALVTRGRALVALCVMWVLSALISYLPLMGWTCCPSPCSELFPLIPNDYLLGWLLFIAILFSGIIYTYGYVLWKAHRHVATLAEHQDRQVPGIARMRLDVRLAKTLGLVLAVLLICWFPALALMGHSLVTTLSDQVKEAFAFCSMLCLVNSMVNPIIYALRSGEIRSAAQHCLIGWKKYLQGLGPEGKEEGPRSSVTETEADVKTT
- ASSAY_DETAILS: CB2 receptor binding, [3H]CP-55,940 displacement
- TEST_SETTINGS: mouse spleen membranes
Listed below: log10(Ki) values for each entry.
MEASURED_ATTRIBUTE: log10(Ki) (log10 of the value in nM)

>>> reported("CCCCCC=CCC=CCC=CCC=CCCCCOC(=O)NCC(C)O (centres unmarked) [Compound B3]")
2.78
>>> reported("CCCCC/C=C\\C/C=C\\C/C=C\\C/C=C\\CCCCOC(=O)N[C@H](C)CO")
3.71
>>> reported("COc1cc(CNC(=O)CCC/C=C\\C/C=C\\C/C=C\\C/C=C\\CCCCN=[N+]=[N-])ccc1O")
2.48
>>> reported("[N-]=[N+]=NCCCC/C=C\\C/C=C\\C/C=C\\C/C=C\\CCCC(=O)NC1CCC1")
1.86
>>> reported("CCCCCN(C)C/C=C\\C/C=C\\C/C=C\\C/C=C\\CCCCNC(=O)COC [Compound A22]")
2.35
>>> reported("C[C@H](CO)NC(=O)CCC/C=C\\C/C=C\\C/C=C\\C/C=C\\CCC12CC3CC(CC(C3)C1)C2")
3.75
>>> reported("COc1cc(CNC(=O)CCC/C=C\\C/C=C\\C/C=C\\C/C=C\\CCCCN=C=S)ccc1O")
2.74
>>> reported("[N-]=[N+]=NCCCC/C=C\\C/C=C\\C/C=C\\C/C=C\\CCCC(=O)NCC1CC1")
2.63
